What mass density was measured for each of the following?
CONDITION DESCRIPTION: 363.15 K; 2000 kPa; Liquid
Provide the reading as a plain figure in kg/m3.

Asked: Give reported mass density value for CCCCCCCC[n+]1ccn(C)c1.F[P-](F)(F)(F)(F)F [1-octyl-3-methylimidazolium hexafluorophosphate]
Given back: 1187.6

Asked: Give reported mass density value for CCCCn1cc[n+](C)c1.O=S(=O)([O-])C(F)(F)F [1-butyl-3-methylimidazolium trifluoromethanesulfonate]
Given back: 1248.3

Asked: Give reported mass density value for CCCCn1cc[n+](C)c1.F[B-](F)(F)F [1-butyl-3-methylimidazolium tetrafluoroborate]
Given back: 1155.8

Asked: Give reported mass density value for CCCCCCCC[n+]1ccn(C)c1.F[B-](F)(F)F [1-methyl-3-octylimidazolium tetrafluoroborate]
Given back: 1059.8

Asked: Give reported mass density value for CCCCCCn1cc[n+](C)c1.F[P-](F)(F)(F)(F)F [1-hexyl-3-methylimidazolium hexafluorophosphate]
Given back: 1242

Asked: Give reported mass density value for CCCCn1cc[n+](C)c1C.F[P-](F)(F)(F)(F)F [1-butyl-2,3-dimethylimidazolium hexafluorophosphate]
Given back: 1298.8

====

CONDITION DESCRIPTION: 343.15 K; 1000 kPa; Liquid
What mass density was measured for each of the following?
Provide the reading as a plain figure in kg/m3.

Asked: Give reported mass density value for CCCCn1cc[n+](C)c1.O=S(=O)([O-])C(F)(F)F [1-butyl-3-methylimidazolium trifluoromethanesulfonate]
Given back: 1263.1

Asked: Give reported mass density value for CCCCCCn1cc[n+](C)c1.F[P-](F)(F)(F)(F)F [1-hexyl-3-methylimidazolium hexafluorophosphate]
Given back: 1256.7

Asked: Give reported mass density value for CCCCCCCC[n+]1ccn(C)c1.F[B-](F)(F)F [1-methyl-3-octylimidazolium tetrafluoroborate]
Given back: 1072

Asked: Give reported mass density value for CCCCn1cc[n+](C)c1.F[B-](F)(F)F [1-butyl-3-methylimidazolium tetrafluoroborate]
Given back: 1168.9

Asked: Give reported mass density value for CCCCn1cc[n+](C)c1C.F[P-](F)(F)(F)(F)F [1-butyl-2,3-dimethylimidazolium hexafluorophosphate]
Given back: 1314.1

Asked: Give reported mass density value for CCCCCCCC[n+]1ccn(C)c1.F[P-](F)(F)(F)(F)F [1-octyl-3-methylimidazolium hexafluorophosphate]
Given back: 1201.6

====

CONDITION DESCRIPTION: 313.15 K; 5000 kPa; Liquid
ASSAY ENDPOINT: mass density (kg/m3)
Provide the reading as a plain figure in kg/m3.

Asked: Give reported mass density value for CCCCn1cc[n+](C)c1.F[B-](F)(F)F [1-butyl-3-methylimidazolium tetrafluoroborate]
Given back: 1193.2

Asked: Give reported mass density value for CCCCCCn1cc[n+](C)c1.F[P-](F)(F)(F)(F)F [1-hexyl-3-methylimidazolium hexafluorophosphate]
Given back: 1284.3

Asked: Give reported mass density value for CCCCCCCC[n+]1ccn(C)c1.F[B-](F)(F)F [1-methyl-3-octylimidazolium tetrafluoroborate]
Given back: 1095.4

Asked: Give reported mass density value for CCCCn1cc[n+](C)c1C.F[P-](F)(F)(F)(F)F [1-butyl-2,3-dimethylimidazolium hexafluorophosphate]
Given back: 1342.1

Asked: Give reported mass density value for CCCCn1cc[n+](C)c1.O=S(=O)([O-])C(F)(F)F [1-butyl-3-methylimidazolium trifluoromethanesulfonate]
Given back: 1290.5

Asked: Give reported mass density value for CCCCCCCC[n+]1ccn(C)c1.F[P-](F)(F)(F)(F)F [1-octyl-3-methylimidazolium hexafluorophosphate]
Given back: 1228.3

====

CONDITION DESCRIPTION: 303.15 K; 100 kPa; Liquid
ASSAY ENDPOINT: mass density (kg/m3)
Provide the reading as a plain figure in kg/m3.

Asked: Give reported mass density value for CCCCCCCC[n+]1ccn(C)c1.F[B-](F)(F)F [1-methyl-3-octylimidazolium tetrafluoroborate]
Given back: 1100.7

Asked: Give reported mass density value for CCCCn1cc[n+](C)c1.O=S(=O)([O-])C(F)(F)F [1-butyl-3-methylimidazolium trifluoromethanesulfonate]
Given back: 1296.6

Asked: Give reported mass density value for CCCCCCn1cc[n+](C)c1.F[P-](F)(F)(F)(F)F [1-hexyl-3-methylimidazolium hexafluorophosphate]
Given back: 1290.6

Asked: Give reported mass density value for CCCCn1cc[n+](C)c1.F[B-](F)(F)F [1-butyl-3-methylimidazolium tetrafluoroborate]
Given back: 1198.6

Asked: Give reported mass density value for CCCCCCCC[n+]1ccn(C)c1.F[P-](F)(F)(F)(F)F [1-octyl-3-methylimidazolium hexafluorophosphate]
Given back: 1233.8

====

What mass density was measured for each of the following?
CONDITION DESCRIPTION: 393.15 K; 3000 kPa; Liquid
Provide the reading as a plain figure in kg/m3.

Asked: Give reported mass density value for CCCCn1cc[n+](C)c1.O=S(=O)([O-])C(F)(F)F [1-butyl-3-methylimidazolium trifluoromethanesulfonate]
Given back: 1227.6

Asked: Give reported mass density value for CCCCn1cc[n+](C)c1C.F[P-](F)(F)(F)(F)F [1-butyl-2,3-dimethylimidazolium hexafluorophosphate]
Given back: 1278.1

Asked: Give reported mass density value for CCCCCCCC[n+]1ccn(C)c1.F[B-](F)(F)F [1-methyl-3-octylimidazolium tetrafluoroborate]
Given back: 1042.8

Asked: Give reported mass density value for CCCCCCCC[n+]1ccn(C)c1.F[P-](F)(F)(F)(F)F [1-octyl-3-methylimidazolium hexafluorophosphate]
Given back: 1168.3

Asked: Give reported mass density value for CCCCn1cc[n+](C)c1.F[B-](F)(F)F [1-butyl-3-methylimidazolium tetrafluoroborate]
Given back: 1137.9

Asked: Give reported mass density value for CCCCCCn1cc[n+](C)c1.F[P-](F)(F)(F)(F)F [1-hexyl-3-methylimidazolium hexafluorophosphate]
Given back: 1221.7

====

CONDITION DESCRIPTION: 333.15 K; 3000 kPa; Liquid
ASSAY ENDPOINT: mass density (kg/m3)
Provide the reading as a plain figure in kg/m3.

Asked: Give reported mass density value for CCCCn1cc[n+](C)c1.O=S(=O)([O-])C(F)(F)F [1-butyl-3-methylimidazolium trifluoromethanesulfonate]
Given back: 1272.4

Asked: Give reported mass density value for CCCCCCCC[n+]1ccn(C)c1.F[P-](F)(F)(F)(F)F [1-octyl-3-methylimidazolium hexafluorophosphate]
Given back: 1211

Asked: Give reported mass density value for CCCCn1cc[n+](C)c1C.F[P-](F)(F)(F)(F)F [1-butyl-2,3-dimethylimidazolium hexafluorophosphate]
Given back: 1323.5

Asked: Give reported mass density value for CCCCCCCC[n+]1ccn(C)c1.F[B-](F)(F)F [1-methyl-3-octylimidazolium tetrafluoroborate]
Given back: 1079.8

Asked: Give reported mass density value for CCCCn1cc[n+](C)c1.F[B-](F)(F)F [1-butyl-3-methylimidazolium tetrafluoroborate]
Given back: 1177.4

Asked: Give reported mass density value for CCCCCCn1cc[n+](C)c1.F[P-](F)(F)(F)(F)F [1-hexyl-3-methylimidazolium hexafluorophosphate]
Given back: 1266

====

What mass density was measured for each of the following?
CONDITION DESCRIPTION: 343.15 K; 3000 kPa; Liquid
± gives the expanded uncertainty stated by the source.
Include the unit right after the number.

Asked: Give reported mass density value for CCCCCCCC[n+]1ccn(C)c1.F[P-](F)(F)(F)(F)F [1-octyl-3-methylimidazolium hexafluorophosphate]
Given back: 1203 ± 2.8 kg/m3

Asked: Give reported mass density value for CCCCCCn1cc[n+](C)c1.F[P-](F)(F)(F)(F)F [1-hexyl-3-methylimidazolium hexafluorophosphate]
Given back: 1258 ± 3.2 kg/m3

Asked: Give reported mass density value for CCCCCCCC[n+]1ccn(C)c1.F[B-](F)(F)F [1-methyl-3-octylimidazolium tetrafluoroborate]
Given back: 1073.1 ± 0.9 kg/m3

Asked: Give reported mass density value for CCCCn1cc[n+](C)c1.F[B-](F)(F)F [1-butyl-3-methylimidazolium tetrafluoroborate]
Given back: 1169.8 ± 2.5 kg/m3

Asked: Give reported mass density value for CCCCn1cc[n+](C)c1C.F[P-](F)(F)(F)(F)F [1-butyl-2,3-dimethylimidazolium hexafluorophosphate]
Given back: 1315.2 ± 3.7 kg/m3

Asked: Give reported mass density value for CCCCn1cc[n+](C)c1.O=S(=O)([O-])C(F)(F)F [1-butyl-3-methylimidazolium trifluoromethanesulfonate]
Given back: 1264.5 ± 1.6 kg/m3

====

CONDITION DESCRIPTION: 313.15 K; 4000 kPa; Liquid
± gives the expanded uncertainty stated by the source.
What mass density was measured for each of the following?
Include the unit right after the number.

Asked: Give reported mass density value for CCCCCCCC[n+]1ccn(C)c1.F[P-](F)(F)(F)(F)F [1-octyl-3-methylimidazolium hexafluorophosphate]
Given back: 1227.7 ± 3.1 kg/m3

Asked: Give reported mass density value for CCCCn1cc[n+](C)c1C.F[P-](F)(F)(F)(F)F [1-butyl-2,3-dimethylimidazolium hexafluorophosphate]
Given back: 1341.6 ± 4 kg/m3

Asked: Give reported mass density value for CCCCCCCC[n+]1ccn(C)c1.F[B-](F)(F)F [1-methyl-3-octylimidazolium tetrafluoroborate]
Given back: 1094.9 ± 1 kg/m3

Asked: Give reported mass density value for CCCCn1cc[n+](C)c1.O=S(=O)([O-])C(F)(F)F [1-butyl-3-methylimidazolium trifluoromethanesulfonate]
Given back: 1289.9 ± 1.8 kg/m3

Asked: Give reported mass density value for CCCCn1cc[n+](C)c1.F[B-](F)(F)F [1-butyl-3-methylimidazolium tetrafluoroborate]
Given back: 1192.7 ± 2.8 kg/m3

Asked: Give reported mass density value for CCCCCCn1cc[n+](C)c1.F[P-](F)(F)(F)(F)F [1-hexyl-3-methylimidazolium hexafluorophosphate]
Given back: 1283.7 ± 3.5 kg/m3
